- Test system: OVCAR-4 ovarian
- assay-notes: NCI tumour cell line growth inhibition, 48 h
Catalogue of TGI values
Numbers only here, please. The scale is µM.

CC(=O)c1ccc(N(/C=C/C(=O)C(F)(F)F)CC(=O)c2ccc(Cl)c(Cl)c2)cc1; 33.4
N#Cc1c2c(c(Nc3ccc(F)cc3)n3c1nc1ccccc13)CCC2; 28.4

Query compound follows.
Q: Bench note: what TGI did `N#Cc1nc(-c2ccc(F)cc2)oc1S(=O)(=O)N1CCOCC1` show?
A: 10.2

* * *

- Tested on: HT29 colon
- assay-notes: NCI tumour cell line growth inhibition, 48 h
measurement-label: GI50

Here is how some compounds turned out for GI50.
CC(=O)c1ccc(N(/C=C/C(=O)C(F)(F)F)CC(=O)c2ccc(Cl)c(Cl)c2)cc1; 24.4 µM
CCN1CCN(c2nc(NCCNc3ccnc4cc(Cl)ccc34)c3ccccc3n2)CC1; 0.793 µM
CC1=C2[C@@H](CC1)[C@]1(C)O[C@@](C(C)C)(C[C@H]1OC(=O)[C@H](C)O)[C@H]2OC(=O)/C=C/c1ccccc1; 13.6 µM
Cn1c(-c2nonc2N)nc2cnccc21; > 25 µM

Q: Bench note: what GI50 did `COc1ccccc1NC(=O)c1ccc(/C=C/C(=O)c2nccn2C)cc1` show?
A: 0.644 µM

* * *

- Tested on: K-562 leukemia
- assay-notes: NCI tumour cell line growth inhibition, 48 h; in the data active = GI50 below about 0.43 µM; inactive = the rest
Outcome (select one): T for active, F for inactive

Answered cases to consult:
COc1cc2c(c(OC)c1OC)-c1ccc(NCc3ccccc3)c(=O)cc1[C@@H](NC(C)=O)CC2; T
COc1nc2c(cc1S(=O)(=O)c1ccccc1)CCc1c-2cnn1-c1ccccc1Cl; F

Consider the record given below.
Q: Test call for this compound, please: `C[C@@H]1Cc2c([nH]c3ccccc23)[C@@H](c2c(F)cc(/C=C/C(=O)O)cc2F)N1CC(C)(C)F`
A: F

* * *

Catalogue of TGI values
- System: M14 melanoma
- assay-notes: NCI tumour cell line growth inhibition, 48 h

Q: Bench note: what TGI did `COc1ccc(CNC(=O)COc2ccc(/C=N/Nc3nc4ccccc4s3)cc2)cc1` show?
A: > 100 µM

Q: Repeat for the following molecule: `CN(C)c1ccc(/C=C2\C[N+](C)(C)C/C(=C\c3ccc(N(C)C)cc3)C2=O)cc1`
A: 74.8 µM

* * *

- Test system: HT29 colon
- assay-notes: NCI tumour cell line growth inhibition, 48 h
Record yes whenever TGI is at 20 µM or higher; record no when lower.

CCCNC(=O)OCc1c(COC(=O)NCCC)c(-c2ccc(Cl)c(Cl)c2)n2c1CCC2; no
CCn1c(=O)c2c3cc(O)ccc3oc2c2ccc(O)cc21; yes
COc1nc2c(cc1S(=O)(=O)c1ccccc1)CCc1c-2cnn1-c1ccccc1Cl; yes
Brc1ccc2c3c1[C@@H]1O[C@@H]1c1cccc(c1-3)[C@@H]1O[C@H]21; yes
Cc1c(C(=O)/C=C/c2cccc3ccccc23)[n+](=O)c2ccccc2n1[O-]; yes

Q: Is reported TGI greater than or equal to 20 µM here: `O=[N+]([O-])C(=C(Sc1ccccc1)Sc1ccccc1)C(Cl)=C(Cl)Cl`
A: no

Q: Repeat for the following compound: `Cc1nc2ccc([N+](=O)[O-])cc2c(=O)n1C(=S)Nc1cccc(Cl)c1`
A: yes

Q: Repeat for the following compound: CCCCCCCCCCCCCCC1OC(=O)c2ccccc21 (centres undefined)
A: yes

Q: Repeat for the following compound: `Cc1ccc(C(=O)Nc2ccc(CP(=O)(O)O)cc2)cc1NC(=O)c1cccc(NC(=O)Nc2cccc(C(=O)Nc3cc(C(=O)Nc4ccc(CP(=O)(O)O)cc4)ccc3C)c2)c1`
A: yes
